The measurements presented in this section are drawn from ChEMBL document CHEMBL5058577.

system: Fibroblast; assay: Multiplex assay against human fibroblast; type: toxicity, cell-based; settings: 48 h, 10 µM, compound concentration 10 uM, replicate 1
Just so you know, the groups by Population Mitochondria Different-Phenotype (%) go like this: c1 (below 9%), c2 (9% to below 20%), c3 (20% or more)

Exam item: Which category fits this record: COc1cc(Nc2ncc3c(n2)-c2ccc(Cl)cc2C(c2c(F)cccc2OC)=NC3)ccc1C(=O)O [ALISERTIB]
Marked response: c3

Exam item: Please give the result for COC(c1ccccc1)(c1ccccc1)[C@H](Oc1nc(C)cc(C)n1)C(=O)O [AMBRISENTAN] too.
Marked response: c2

Exam item: Please give the result for CN(C)C(=O)Cn1cc(-c2ccc(-c3nnc4ccccn34)cc2)cn1 too.
Marked response: c1

Exam item: Please give the result for Cc1nn(C)c2nc(NNC(=O)Nc3cc(Cl)nc(Cl)c3)cc(C(C)C)c12 too.
Marked response: c3

Exam item: Please give the result for O=C(Nc1cc(-c2ccccc2)nn1-c1ccccc1F)c1ccc([N+](=O)[O-])cc1 too.
Marked response: c1

Exam item: Please give the result for COc1cc(C(=O)N2CC[C@@H](O)[C@@H](N)C2)cc2nc(-c3cc4ccccc4n3CC3CC3)n(C)c12.Cl too.
Marked response: c3

Exam item: Please give the result for Cc1cc(=O)n(C)c2cc(N3C(=O)CC[C@H](NS(=O)(=O)CC(C)C)[C@H]3c3ccc(Cl)cc3)ccc12 too.
Marked response: c3

Exam item: Please give the result for Cc1sc2c(c1C)C(c1ccc(Cl)cc1)=N[C@H](CC(=O)OC(C)(C)C)c1nnc(C)n1-2 too.
Marked response: c2

Exam item: Please give the result for CC(C)C[C@H](CO)Nc1nc(S[C@@H](C)c2ccccc2)nc2nc(N)sc12 [AZD-8797] too.
Marked response: c2

Exam item: Please give the result for CSc1nc(NC2CCCC2)c([N+](=O)[O-])c(NC2CCCC2)n1 [GS-39783] too.
Marked response: c1

Exam item: Please give the result for CN1CCN(c2ccc(Nc3c4ccccc4nc4ccccc34)cc2)CC1.Cl.Cl.O too.
Marked response: c3

Exam item: Please give the result for COCCCN1CCC(NC(=O)c2cc(Cl)c(N)c3c2OCC3)CC1 [PRUCALOPRIDE] too.
Marked response: c1
